These entries and their values trace back to the supplement of paper PMC11061612.

- Test system: JHH-6 (Hepatocellular Carcinoma)
- EXPERIMENT NOTES: combination Emax (second highest fraction inhibited in the dose matrix, 72 h); higher = more inhibition; extreme values may be limits of the assay
Classification field: enter condition met for combination Emax values not below 0.3, condition not met for values below it.

INSERT INTO measurements (compound, assay_system, group) VALUES
  ('COc1nnc2ccc(N3CCC(c4ccc(OCCN5CCN(C)C(=O)[C@H]5C)cc4)CC3)nn12 [AZD5153] + Cn1cnc2c(F)c(Nc3ccc(Br)cc3Cl)c(C(=O)NOCCO)cc21 [Selumetinib] (first compound max 1 µM, 7x7, partner max 10 µM)', 'JHH-6 (Hepatocellular Carcinoma)', 'condition met'),
  ('C[C@@H]1COCCN1c1cc(C2([S@](C)(=N)=O)CC2)nc(-c2ccnc3[nH]ccc23)n1 [AZD6738] + O=C(c1cc(Cc2n[nH]c(=O)c3ccccc23)ccc1F)N1CCN(C(=O)C2CC2)CC1 [Olaparib] (first compound max 10 µM, 7x7, partner max 10 µM)', 'JHH-6 (Hepatocellular Carcinoma)', 'condition not met'),
  ('CC(=O)c1c(C)c2cnc(Nc3ccc(N4CCNCC4)cn3)nc2n(C2CCCC2)c1=O [Palbociclib] + Cn1cnc2c(F)c(Nc3ccc(Br)cc3Cl)c(C(=O)NOCCO)cc21 [Selumetinib] (first compound max 10 µM, 7x7, partner max 10 µM)', 'JHH-6 (Hepatocellular Carcinoma)', 'condition met'),
  ('CN(C)CCCOc1ccc(-c2ccc3ncc4c(c3c2)n(C2CCOCC2)c(=O)n4C)cn1 [AZD0156] + C=CCn1c(=O)c2cnc(Nc3ccc(N4CCN(C)CC4)cc3)nc2n1-c1cccc(C(C)(C)O)n1 [AZD1775] (first compound max 1 µM, partner max 1 µM)', 'JHH-6 (Hepatocellular Carcinoma)', 'condition not met'),
  ('COc1nnc2ccc(N3CCC(c4ccc(OCCN5CCN(C)C(=O)[C@H]5C)cc4)CC3)nn12 [AZD5153] + C=CCn1c(=O)c2cnc(Nc3ccc(N4CCN(C)CC4)cc3)nc2n1-c1cccc(C(C)(C)O)n1 [AZD1775] (first compound max 1 µM, partner max 1 µM)', 'JHH-6 (Hepatocellular Carcinoma)', 'condition met'),
  ('C=CCn1c(=O)c2cnc(Nc3ccc(N4CCN(C)CC4)cc3)nc2n1-c1cccc(C(C)(C)O)n1 [AZD1775] + C[C@@H]1COCCN1C2=NC(=NC(=C2)C3(CC3)[S@](=N)(=O)C)C4=C5C=CNC5=NC=C4 [AZD6738] (first compound max 1 µM, partner max 10 µM)', 'JHH-6 (Hepatocellular Carcinoma)', 'condition met'),
  ('CCN(CCO)CCCOc1ccc2c(Nc3cc(CC(=O)Nc4cccc(F)c4)[nH]n3)ncnc2c1 [AZD2811] + C[C@@H]1COCCN1C2=NC(=NC(=C2)C3(CC3)[S@](=N)(=O)C)C4=C5C=CNC5=NC=C4 [AZD6738] (first compound max 1 µM, 7x7, partner max 10 µM)', 'JHH-6 (Hepatocellular Carcinoma)', 'condition not met');

====

- System: HLE (Hepatocellular Carcinoma);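 note: after 72 h of two-drug dosing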
- EXPERIMENT NOTES: Bliss excess, mean over the matrix (fraction); higher = more synergy
Classification field: enter met for Bliss excess values not below -0.03, not met for values below it.

INSERT INTO assay_data (molecule, group) VALUES
  ('CN(CCO)CC[C@H](CSc1ccccc1)Nc1ccc(S(=O)(=O)NC(=O)c2ccc(N3CCC([C@@H](O)c4ccccc4-c4ccc(Cl)cc4)CC3)cc2)cc1S(=O)(=O)C(F)(F)F [AZD4320] + CS(=O)(=O)CCNCc1ccc(-c2ccc3ncnc(Nc4ccc(OCc5cccc(F)c5)c(Cl)c4)c3c2)o1 [Lapatinib] (first compound max 1 µM, 7x7, partner max 10 µM)', 'met'),
  ('NC1(C(=O)N[C@@H](CCO)c2ccc(Cl)cc2)CCN(c2ncnc3[nH]ccc23)CC1 [Capivasertib] + C[C@@H]1COCCN1C2=NC(=NC(=C2)C3(CC3)[S@](=N)(=O)C)C4=C5C=CNC5=NC=C4 [AZD6738] (first compound max 10 µM, 7x7, partner max 10 µM)', 'not met'),
  ('C[C@@H](c1ccc2nccn2c1)n1nnc2ncc(-c3cnn(C)c3)nc21 [Savolitinib] + Cc1c2c(nn1C)CSCc1cc(n(C)n1)CSc1cc(c3ccccc3c1)OCCCc1c(C(=O)O)n(C)c3c-2c(Cl)ccc13 [AZD5991] (first compound max 1 µM, 7x7, partner max 1 µM)', 'met'),
  ('Cc1c2c(nn1C)CSCc1cc(n(C)n1)CSc1cc(c3ccccc3c1)OCCCc1c(C(=O)O)n(C)c3c-2c(Cl)ccc13 [AZD5991] + CS(=O)(=O)CCNCc1ccc(-c2ccc3ncnc(Nc4ccc(OCc5cccc(F)c5)c(Cl)c4)c3c2)o1 [Lapatinib] (first compound max 1 µM, 7x7, partner max 10 µM)', 'met'),
  ('N#Cc1cnc(Nc2cc(NC[C@H]3CNCCO3)c(C(F)(F)F)cn2)cn1 [SRA737] + O=c1[nH]cc(F)c(=O)[nH]1 [5-Fluorouracil] (first compound max 10 µM, 7x7, partner max 20 µM)', 'met'),
  ('CN(CCO)CC[C@H](CSc1ccccc1)Nc1ccc(S(=O)(=O)NC(=O)c2ccc(N3CCC([C@@H](O)c4ccccc4-c4ccc(Cl)cc4)CC3)cc2)cc1S(=O)(=O)C(F)(F)F [AZD4320] + C[C@@H](Nc1cc(F)cc(F)c1)c1cc(C(=O)N(C)C)cc2c(=O)cc(N3CCOCC3)oc12 [AZD8186] (first compound max 1 µM, 7x7, partner max 3 µM)', 'not met');
